Consider the following compounds and their measured Difference readings.
# System: NCI-H292 lung cancer cells
# EXPERIMENT_DESCRIPTION: FDA drug screening, complete media vs cholesterol-free media without statin (TABLE 1)
# Assay type: cell-based, human
# EXPERIMENTAL_CONTEXT: complete vs cholesterol-free media; greater than 0 enhanced anti-cancer activity, about 0 neutral, below 0 antagonists
Where a name gives a salt, the structure may show the parent alone.
// response body must contain only the number

{"columns": ["COMPOUND", "OBSERVED_RESULT"],
 "data": [
  ["CC(Cc1cccc(C(F)(F)F)c1)NCCOC(=O)c1ccccc1 (stereo not shown) [Benfluorex (hydrochloride)]", "−0.44"],
  ["CN1CC2c3ccccc3Oc3ccc(Cl)cc3C2C1 (stereo not shown)", "−0.33"],
  ["CCOC(=O)c1c(CSc2ccccc2)n(C)c2cc(Br)c(O)c(CN(C)C)c12 [Umifenovir (hydrochloride)]", "−0.33"]
]}

Moving on to another compound below.
Hello, I am looking for reported Difference with NCI-H292 lung cancer cells for COc1ccc([C@@H]2Sc3ccccc3N(CCN(C)C)C(=O)[C@@H]2OC(C)=O)cc1 [Diltiazem (hydrochloride)] . Could you help?
−0.32

* * *

# Test system: NCI-H292 lung cancer cells
# EXPERIMENT_DESCRIPTION: FDA drug screening, complete media vs cholesterol-free media with simvastatin (TABLE 2)
# Type: cell-based, human
# EXPERIMENTAL_CONTEXT: complete media vs cholesterol-free media + simvastatin (0.04 μM); […]
Consider the following compounds and their measured Difference readings.
// response body must contain only the number

Consider the following illustrative entries.
{"columns": ["COMPOUND", "Difference"],
 "data": [
  ["CC1(C)CCC[C@](C)([C@H]2CC[C@]3(C)[C@@H]2[C@H](O)C[C@@H]2[C@@]4(C)CC[C@H](O)C(C)(C)[C@@H]4[C@@H](O)C[C@]23C)O1", "−0.13"],
  ["NCCCC[C@H](N)C(=O)O", "−0.29"],
  ["C=CC[N+]1([C@H]2C[C@H]3[C@@H]4CC[C@H]5C[C@H](OC(C)=O)[C@@H](N6CCCCC6)C[C@]5(C)[C@H]4CC[C@]3(C)[C@H]2OC(=O)CC)CCCCC1 [Rapacuronium bromide]", "−0.29"],
  ["O=C(O[C@H]1C[C@H]2CC[C@@H](C1)[N+]21CCCC1)C(O)(c1ccccc1)c1ccccc1.[Cl-] [Trospium (chloride)]", "−0.43"]
]}

Which Difference is listed for CCOC(=O)CCC(=O)O[C@H]1[C@H](O[C@@H]2[C@@H](C)[C@H](O[C@H]3C[C@@](C)(OC)[C@@H](O)[C@H](C)O3)[C@@H](C)C(=O)O[C@H](CC)[C@@](C)(O)[C@H](O)[C@@H](C)C(=O)[C@H](C)C[C@@]2(C)O)O[C@H](C)C[C@@H]1N(C)C [Erythromycin Ethylsuccinate] ?
−0.09

Which Difference is listed for CN1C(=O)C[C@@H](C(=O)N[C@@H](Cc2c[nH]cn2)C(=O)N2CCC[C@H]2C(N)=O)NC1=O ?
−0.24

* * *

# Tested on: NCI-H292 lung cancer cells
# EXPERIMENT_DESCRIPTION: FDA drug screening, complete media vs cholesterol-free media without statin (TABLE 1)
# Format: cell-based, human
# EXPERIMENTAL_CONTEXT: NCI-H292 cells, cholesterol-free media without statin
Structures can show the parent of a compound that is named as a salt.
REPORTED_METRIC: Cholesterol-free
// response body must contain only the number

Which Cholesterol-free is listed for CNCc1ccc(-c2[nH]c3cc(F)cc4c3c2CCNC4=O)cc1 [Rucaparib (Camsylate)] ?
1.063

Which Cholesterol-free is listed for O=c1c(-c2ccc(O)cc2)coc2c([C@@H]3O[C@H](CO)[C@@H](O)[C@H](O)[C@H]3O)c(O)ccc12 [Puerarin] ?
1.203

Which Cholesterol-free is listed for CCN(CC)CCOC(=O)C1(C2CCCCC2)CCCCC1 [Dicyclomine (hydrochloride)] ?
1.211

Which Cholesterol-free is listed for CCOC(=O)c1c(CSc2ccccc2)n(C)c2cc(Br)c(O)c(CN(C)C)c12 [Umifenovir (hydrochloride)] ?
1.088

* * *

Consider the following molecules and their measured Complete Media readings.
# Tested on: NCI-H292 lung cancer cells
# EXPERIMENT_DESCRIPTION: FDA drug screening, complete media vs cholesterol-free media with simvastatin (TABLE 2)
# Type: cell-based, human
# EXPERIMENTAL_CONTEXT: NCI-H292 cells, complete media; FDA drug library screen (TABLE 2)
Where a name gives a salt, the structure may show the parent alone.

{"columns": ["MOLECULE", "Complete Media"],
 "data": [
  ["CC(C)(C)C(=O)Oc1ccc(S(=O)(=O)Nc2ccccc2C(=O)NCC(=O)O)cc1 [Sivelestat (sodium tetrahydrate)]", 1.039]
]}

Which Complete Media is listed for CC(=O)c1c(C)c2cnc(Nc3ccc(N4CCNCC4)cn3)nc2n(C2CCCC2)c1=O.O=S(=O)(O)CCO [Palbociclib (isethionate)] ?
0.6914

Which Complete Media is listed for O=C(O)c1cc(/N=N/c2ccc(S(=O)(=O)Nc3ccccn3)cc2)ccc1O ?
1.155

Which Complete Media is listed for Cc1ccc(NC(=O)c2ccc(CN3CCN(C)CC3)cc2)cc1Nc1nccc(-c2cccnc2)n1 ?
1.199

Which Complete Media is listed for COc1cccc2c1C(=O)c1c(O)c3c(c(O)c1C2=O)C[C@@](O)(C(=O)CO)C[C@@H]3O[C@H]1C[C@H](N)[C@H](O)[C@H](C)O1 [Doxorubicin (hydrochloride)] ?
0.01994

Which Complete Media is listed for Cc1[nH]c(=O)c(C#N)cc1-c1ccc2nccn2c1 [Olprinone (Hydrochloride)] ?
1.64

Which Complete Media is listed for CC(C)C[C@H](NC(=O)CNC(=O)c1cc(Cl)ccc1Cl)B(O)O ?
−0.009398

* * *

Consider the following compounds and their measured Cholesterol-free readings.
# System: NCI-H292 lung cancer cells
# EXPERIMENT_DESCRIPTION: FDA drug screening, complete media vs cholesterol-free media without statin (TABLE 1)
# Assay type: cell-based, human
# EXPERIMENTAL_CONTEXT: NCI-H292 cells, cholesterol-free media without statin
// response body must contain only the number

{"columns": ["COMPOUND", "TARGET_DESC", "Cholesterol-free"],
 "data": [
  ["O=C1CCc2cc(OCCCCc3nnnn3C3CCCCC3)ccc2N1 [Cilostazol]", "NCI-H292 lung cancer cells", 1.501]
]}

Which Cholesterol-free is listed for C[C@H](CCC(=O)NCCS(=O)(=O)[O-])[C@H]1CC[C@H]2[C@@H]3[C@@H](O)C[C@@H]4C[C@H](O)CC[C@]4(C)[C@H]3CC[C@]12C.[Na+] [Taurochenodeoxycholic acid (sodium salt)] ?
0.9501

Which Cholesterol-free is listed for CC(C(=O)O)c1ccc(CC2CCCC2=O)cc1 (stereo not drawn) [Loxoprofen (sodium)] ?
0.9775

Which Cholesterol-free is listed for CCCOC(=O)c1cc(O)c(O)c(O)c1 [Propyl gallate] ?
1.541

Which Cholesterol-free is listed for Cc1c(O)c(=O)ccn1C [Deferiprone] ?
1.443

* * *

# Test system: NCI-H292 lung cancer cells
# EXPERIMENT_DESCRIPTION: FDA drug screening, complete media vs cholesterol-free media without statin (TABLE 1)
# Type: cell-based, human
# EXPERIMENTAL_CONTEXT: NCI-H292 cells, complete media, FDA drug library screen
Structures can show the parent of a compound that is named as a salt.
Consider the following compounds and their measured Complete readings.
// response body must contain only the number

{"columns": ["COMPOUND", "Complete"],
 "data": [
  ["COc1cc(N2CCC(N3CCN(C)CC3)CC2)ccc1Nc1ncc(Cl)c(Nc2ccccc2P(C)(C)=O)n1", 0.9482],
  ["Clc1ccc(CCCOCCCN2CCCCC2)cc1 [Pitolisant (hydrochloride)]", 1.232],
  ["O=C(CCCN1CCN(c2ccccn2)CC1)c1ccc(F)cc1", 0.9163],
  ["CC(C)Oc1ccc(-c2nc(-c3cccc4c3CC[C@@H]4NCCO)no2)cc1C#N", 1.004]
]}

Moving on to another compound below.
Which Complete is listed for CC(O)(CS(=O)(=O)c1ccc(F)cc1)C(=O)Nc1ccc(C#N)c(C(F)(F)F)c1 (centres unmarked) [Bicalutamide] ?
1.016

* * *

# Test system: NCI-H292 lung cancer cells
# EXPERIMENT_DESCRIPTION: FDA drug screening, complete media vs cholesterol-free media with simvastatin (TABLE 2)
# Assay type: cell-based, human
# EXPERIMENTAL_CONTEXT: complete media minus cholesterol-free media + simvastatin; >0 enhanced anti-cancer activity, about 0 neutral, <0 antagonist
REPORTED_METRIC: Difference
// response body must contain only the number

Consider the following illustrative entries.
{"columns": ["COMPOUND", "TARGET_DESC", "Difference"],
 "data": [
  ["COc1cc(NS(=O)(=O)c2ccc(N)cc2)nc(OC)n1 [Sulfadimethoxine]", "NCI-H292 lung cancer cells", 0.15],
  ["CC(C)OC(=O)CNc1cccc(CN(Cc2ccc(-n3cccn3)cc2)S(=O)(=O)c2cccnc2)n1 [Omidenepag isopropyl]", "NCI-H292 lung cancer cells", 0.05],
  ["C[C@@H](O)[C@H]1C(=O)N2C(C(=O)O)=C([C@H]3CCCO3)S[C@H]12 [Faropenem sodium]", "NCI-H292 lung cancer cells", 0.04]
]}

Hello, I am looking for reported Difference with NCI-H292 lung cancer cells for Oc1c(Cl)cc(Cl)c2cccnc12 [Chloroxine] . Could you help?
0.12

Hello, I am looking for reported Difference with NCI-H292 lung cancer cells for CCOC(=O)c1ccc(O)cc1 [Ethylparaben] . Could you help?
0.19

src = patent US20250144067A1
